- measured_target: Sodium-dependent serotonin transporter (Homo sapiens, UniProt P31645);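 also: test system: HEK cells expressing the human transporter, read-out is block of serotonin uptake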
- Sequence (P31645 whole entry): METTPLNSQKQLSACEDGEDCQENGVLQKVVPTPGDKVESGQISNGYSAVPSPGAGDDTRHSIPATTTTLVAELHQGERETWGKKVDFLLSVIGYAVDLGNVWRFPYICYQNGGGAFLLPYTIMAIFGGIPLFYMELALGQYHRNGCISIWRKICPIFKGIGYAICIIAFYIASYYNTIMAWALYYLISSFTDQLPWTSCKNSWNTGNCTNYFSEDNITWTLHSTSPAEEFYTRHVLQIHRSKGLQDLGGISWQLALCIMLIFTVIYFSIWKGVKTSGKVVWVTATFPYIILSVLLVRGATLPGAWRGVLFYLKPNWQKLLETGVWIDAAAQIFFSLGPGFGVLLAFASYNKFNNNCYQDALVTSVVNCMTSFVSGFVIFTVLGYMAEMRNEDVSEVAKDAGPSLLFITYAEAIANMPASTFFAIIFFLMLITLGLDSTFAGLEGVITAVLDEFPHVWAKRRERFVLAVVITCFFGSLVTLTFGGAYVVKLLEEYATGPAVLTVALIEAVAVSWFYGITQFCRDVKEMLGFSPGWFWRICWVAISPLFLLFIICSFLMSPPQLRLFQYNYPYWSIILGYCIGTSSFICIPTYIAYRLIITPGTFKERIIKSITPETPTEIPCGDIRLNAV
- Assay type: cell-based, HEK293
result_type: IC50 (µM)

[[record]]
smi = "CNC[C@H]1CS(=O)(=O)c2ccccc2[C@@H]1Oc1ccccc1C"
observed_result = 10

[[record]]
smi = "CNC[C@@H]1OCc2ccccc2[C@@H]1Oc1ccc(F)cc1C"
observed_result = 0.15

[[record]]
smi = "CNC[C@@H]1Cc2ccccc2[C@@H]1Oc1ccccc1C"
observed_result = 1.6

[[record]]
smi = "CNC[C@@H]1CSc2ccccc2[C@@H]1Oc1ccccc1Cl"
observed_result = 3.6

[[record]]
smi = "CNC[C@H]1OCc2ccccc2[C@@H]1Oc1ccccc1SC"
observed_result = 0.64

[[record]]
smi = "CNC[C@@H]1OCc2ccccc2[C@@H]1Oc1ccccc1F"
observed_result = 3.1

[[record]]
smi = "CNC[C@@H]1Cc2ccccc2[C@@H]1Oc1ccc(C(F)(F)F)cc1"
observed_result = 0.19

[[record]]
smi = "CCc1ccccc1O[C@H]1c2ccccc2CO[C@H]1CNC"
observed_result = 4.5


I. CNC[C@@H]1OCc2ccccc2[C@@H]1Oc1cccc(Cl)c1C
II. CCc1cccc(F)c1O[C@H]1c2ccccc2CO[C@H]1CNC
Endpoint returns the identifier whose IC50 is numerically larger, either I or II . Answer by stating the label of the chosen item.
II

P. CNC[C@@H]1OCc2ccccc2[C@@H]1Oc1cc(F)ccc1C
Q. CNC[C@@H]1OCc2ccccc2[C@@H]1Oc1ccccc1SC
Endpoint returns the identifier whose IC50 is numerically larger, either P or Q . Answer by stating the label of the chosen item.
Q
(Q: 6 µM, P: 4 µM)

P. CCc1ccccc1O[C@H]1c2ccccc2CO[C@@H]1CNC
Q. CN(C)C[C@@H]1Cc2ccccc2[C@@H]1Oc1ccc(C(F)(F)F)cc1
Endpoint returns the identifier whose IC50 is numerically larger, either P or Q . Answer by stating the label of the chosen item.
P

a. CNC[C@H]1Cc2ccccc2[C@@H]1Oc1ccccc1C
b. CNC[C@H]1CSc2ccccc2[C@@H]1Oc1ccccc1C
c. CNC[C@@H]1Cc2ccccc2[C@@H]1Oc1cccc2ccccc12
Given 3 compounds, produce a descending ranking by IC50. Form entry: ranked labels (order as requested).
b, a, c
(b: 3.1 µM, a: 1.5 µM, c: 0.14 µM)
